Sourced from paper PMC4942689

Target: CNGA2RE:A4:B1b channels (Rattus norvegicus, UniProt A0A8I5ZN27+Q00195+Q64359, R538E)
Construct: expressed in transfected cells; host or cells: Xenopus laevis oocytes (cRNA injection), excised inside-out patches
Sequence (A0A8I5ZN27 1-858 isoform A0A8I5ZN27-2, stated change not applied, one chain of several): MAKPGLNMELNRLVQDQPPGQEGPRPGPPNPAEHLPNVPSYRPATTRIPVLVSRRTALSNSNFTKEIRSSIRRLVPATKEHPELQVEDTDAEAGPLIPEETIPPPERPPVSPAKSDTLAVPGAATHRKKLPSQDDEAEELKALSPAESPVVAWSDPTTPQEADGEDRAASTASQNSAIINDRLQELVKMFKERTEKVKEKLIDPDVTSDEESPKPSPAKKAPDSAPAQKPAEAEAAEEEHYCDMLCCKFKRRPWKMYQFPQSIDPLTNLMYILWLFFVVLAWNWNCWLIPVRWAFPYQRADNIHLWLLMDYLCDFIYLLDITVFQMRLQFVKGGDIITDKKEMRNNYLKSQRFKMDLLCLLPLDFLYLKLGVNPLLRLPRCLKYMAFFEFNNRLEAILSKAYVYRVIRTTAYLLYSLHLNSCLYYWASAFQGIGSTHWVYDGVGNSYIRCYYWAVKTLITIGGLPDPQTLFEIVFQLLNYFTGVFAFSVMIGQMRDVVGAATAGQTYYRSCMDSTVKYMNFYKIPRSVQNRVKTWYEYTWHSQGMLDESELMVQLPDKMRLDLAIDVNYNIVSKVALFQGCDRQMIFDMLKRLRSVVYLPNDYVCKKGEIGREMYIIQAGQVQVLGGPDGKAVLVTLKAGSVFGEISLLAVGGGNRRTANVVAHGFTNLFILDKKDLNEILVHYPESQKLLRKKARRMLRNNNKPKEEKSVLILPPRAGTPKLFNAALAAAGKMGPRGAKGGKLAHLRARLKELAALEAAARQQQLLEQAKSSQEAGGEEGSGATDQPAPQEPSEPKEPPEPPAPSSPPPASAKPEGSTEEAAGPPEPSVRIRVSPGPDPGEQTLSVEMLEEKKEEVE
Assay: Concentration-activation relationship, patch-clamp
Type: biochemical
Conditions: high affinity component (CNGA4 and CNGB1b combined), Equation 2, +100 mV, read-out: EC50,h
Metric name: EC50 (µM)
Give bare numbers, in µM.

In: What value of EC50 has been recorded for this entry: Nc1nc2c(ncn2[C@@H]2O[C@@H]3COP(=O)(O)O[C@H]3[C@H]2O)c(=O)[nH]1
Out: 5.7

* * *

Molecular target: CNGA2RE:A4:B1bRE channels (Rattus norvegicus, UniProt A0A8I5ZN27+Q00195+Q64359, R1106E/R538E)
Construct: expressed in transfected cells; host or cells: Xenopus laevis oocytes (cRNA injection), excised inside-out patches
Sequence (Q00195 whole entry R538E): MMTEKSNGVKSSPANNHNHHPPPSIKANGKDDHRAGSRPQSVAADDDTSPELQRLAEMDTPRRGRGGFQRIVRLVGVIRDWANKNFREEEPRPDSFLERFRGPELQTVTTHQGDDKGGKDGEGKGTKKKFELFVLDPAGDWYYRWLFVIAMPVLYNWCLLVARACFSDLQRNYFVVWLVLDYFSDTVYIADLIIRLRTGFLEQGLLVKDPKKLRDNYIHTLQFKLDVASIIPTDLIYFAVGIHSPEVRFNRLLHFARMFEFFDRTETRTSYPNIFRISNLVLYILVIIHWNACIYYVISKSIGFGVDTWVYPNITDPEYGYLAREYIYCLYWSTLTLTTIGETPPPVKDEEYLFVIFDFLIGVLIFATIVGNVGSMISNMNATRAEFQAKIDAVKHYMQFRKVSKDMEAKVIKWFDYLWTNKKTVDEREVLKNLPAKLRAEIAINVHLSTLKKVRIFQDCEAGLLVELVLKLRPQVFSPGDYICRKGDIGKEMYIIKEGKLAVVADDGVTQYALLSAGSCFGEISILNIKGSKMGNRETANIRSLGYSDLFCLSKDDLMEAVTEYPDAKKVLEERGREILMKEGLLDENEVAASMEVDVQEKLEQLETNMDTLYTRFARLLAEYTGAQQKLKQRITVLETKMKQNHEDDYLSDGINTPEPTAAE
Sequence (Q64359 whole entry): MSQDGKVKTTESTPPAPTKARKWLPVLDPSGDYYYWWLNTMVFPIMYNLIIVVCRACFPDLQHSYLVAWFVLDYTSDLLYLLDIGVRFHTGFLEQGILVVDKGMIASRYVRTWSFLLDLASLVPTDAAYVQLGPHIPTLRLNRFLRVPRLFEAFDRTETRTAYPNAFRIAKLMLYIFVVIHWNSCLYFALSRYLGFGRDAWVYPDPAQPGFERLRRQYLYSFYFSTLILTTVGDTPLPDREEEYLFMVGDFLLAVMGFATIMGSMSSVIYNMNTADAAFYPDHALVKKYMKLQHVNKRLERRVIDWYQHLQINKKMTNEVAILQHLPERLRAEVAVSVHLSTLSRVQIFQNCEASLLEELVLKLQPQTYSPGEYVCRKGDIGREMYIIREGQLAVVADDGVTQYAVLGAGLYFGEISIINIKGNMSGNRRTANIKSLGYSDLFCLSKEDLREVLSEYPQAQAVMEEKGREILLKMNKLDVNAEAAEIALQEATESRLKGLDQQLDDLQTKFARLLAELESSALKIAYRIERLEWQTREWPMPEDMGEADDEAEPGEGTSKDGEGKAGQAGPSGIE
Sequence (A0A8I5ZN27 1-858 isoform A0A8I5ZN27-2 R657E): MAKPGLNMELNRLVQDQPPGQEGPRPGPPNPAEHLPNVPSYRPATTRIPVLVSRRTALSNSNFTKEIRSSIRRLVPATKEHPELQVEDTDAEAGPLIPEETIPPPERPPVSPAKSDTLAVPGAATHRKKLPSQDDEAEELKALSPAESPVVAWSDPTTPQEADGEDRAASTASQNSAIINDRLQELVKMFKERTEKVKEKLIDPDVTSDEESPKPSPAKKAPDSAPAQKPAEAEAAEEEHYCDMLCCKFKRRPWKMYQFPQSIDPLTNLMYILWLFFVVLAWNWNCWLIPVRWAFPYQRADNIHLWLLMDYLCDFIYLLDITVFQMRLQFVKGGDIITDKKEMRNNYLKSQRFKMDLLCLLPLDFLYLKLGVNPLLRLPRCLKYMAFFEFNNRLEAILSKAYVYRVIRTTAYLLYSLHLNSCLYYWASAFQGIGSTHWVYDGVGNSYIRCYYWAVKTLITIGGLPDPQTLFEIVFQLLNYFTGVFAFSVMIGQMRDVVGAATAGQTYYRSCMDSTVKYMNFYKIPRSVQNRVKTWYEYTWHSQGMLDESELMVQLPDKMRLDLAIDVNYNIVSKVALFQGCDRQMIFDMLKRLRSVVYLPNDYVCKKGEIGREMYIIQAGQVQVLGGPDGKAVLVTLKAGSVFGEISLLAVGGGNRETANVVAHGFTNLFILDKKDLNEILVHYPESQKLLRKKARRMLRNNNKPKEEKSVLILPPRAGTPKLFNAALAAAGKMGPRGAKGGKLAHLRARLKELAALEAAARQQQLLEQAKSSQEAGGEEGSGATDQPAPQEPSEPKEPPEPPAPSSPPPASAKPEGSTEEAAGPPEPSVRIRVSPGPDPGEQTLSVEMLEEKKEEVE
Test: Concentration-activation relationship, patch-clamp
Assay type: biochemical
Settings: low affinity component, Equation 2, +100 mV, read-out: EC50,l
Metric name: pEC50
Answers are plain numbers, as −log10 of the molar value.

In: What value of pEC50 has been recorded for this entry: Nc1nc2c(ncn2[C@@H]2O[C@@H]3COP(=O)(O)O[C@H]3[C@H]2O)c(=O)[nH]1
Out: 3.44
